Target: full-length PPARδ (Homo sapiens, UniProt Q03181)
Construct: expressed in transfected cells; host or cells: HEK293
Sequence (Q03181 whole entry): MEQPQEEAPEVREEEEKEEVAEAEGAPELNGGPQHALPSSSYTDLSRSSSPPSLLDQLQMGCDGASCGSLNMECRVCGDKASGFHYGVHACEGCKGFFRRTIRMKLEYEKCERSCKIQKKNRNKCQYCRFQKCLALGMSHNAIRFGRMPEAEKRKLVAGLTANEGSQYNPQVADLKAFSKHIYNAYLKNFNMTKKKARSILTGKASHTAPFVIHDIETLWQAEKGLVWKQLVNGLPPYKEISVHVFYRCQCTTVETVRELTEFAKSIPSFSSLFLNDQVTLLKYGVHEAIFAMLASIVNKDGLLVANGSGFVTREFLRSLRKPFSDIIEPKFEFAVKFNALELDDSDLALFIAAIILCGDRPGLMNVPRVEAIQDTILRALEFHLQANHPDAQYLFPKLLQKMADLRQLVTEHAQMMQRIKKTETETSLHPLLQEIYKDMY
Assay: full-length PPARδ PPRE luciferase reporter assay in HEK293 cells
Format: cell-based
Details: Fig. 1C
OBSERVATION TYPE: transactivation of full-length PPARδ (in words)

Give full-length PPARδ (Homo sapiens, UniProt Q03181) transactivation of full-length PPARδ (in words) for CCCCCC(O)CCC=CCC=CCCCCC(=O)O (stereo not shown)
activated PPARδ potently

And then CCCCCC(O)CCC(O)CC/C=C\CCCCC(=O)O (stereo not drawn) [γHYE, 10,13-dihydroxy-cis-6-octadecenoic acid] , what is it?
activated PPARδ potently

And then CCCCCC(=O)CCC=CCC=CCCCCC(=O)O [γKetoD, 13-oxo-cis-6,cis-9-octadecadienoic acid] , what is it?
activated PPARδ potently

And then CCCCC/C=C\C/C=C\C/C=C\CCCCC(=O)O [GLA, γ-linolenic acid, reference compound] , what is it?
not
